Recorded IC50 values for a group of compounds are listed next.
# EXPERIMENTAL SYSTEM: full-length beta-Catenin (Uniprot ID P35222) (Homo sapiens, UniProt P35222)
# Construct: 10 nM full-length beta-Catenin (Uniprot ID P35222)
# Sequence (P35222 1-781): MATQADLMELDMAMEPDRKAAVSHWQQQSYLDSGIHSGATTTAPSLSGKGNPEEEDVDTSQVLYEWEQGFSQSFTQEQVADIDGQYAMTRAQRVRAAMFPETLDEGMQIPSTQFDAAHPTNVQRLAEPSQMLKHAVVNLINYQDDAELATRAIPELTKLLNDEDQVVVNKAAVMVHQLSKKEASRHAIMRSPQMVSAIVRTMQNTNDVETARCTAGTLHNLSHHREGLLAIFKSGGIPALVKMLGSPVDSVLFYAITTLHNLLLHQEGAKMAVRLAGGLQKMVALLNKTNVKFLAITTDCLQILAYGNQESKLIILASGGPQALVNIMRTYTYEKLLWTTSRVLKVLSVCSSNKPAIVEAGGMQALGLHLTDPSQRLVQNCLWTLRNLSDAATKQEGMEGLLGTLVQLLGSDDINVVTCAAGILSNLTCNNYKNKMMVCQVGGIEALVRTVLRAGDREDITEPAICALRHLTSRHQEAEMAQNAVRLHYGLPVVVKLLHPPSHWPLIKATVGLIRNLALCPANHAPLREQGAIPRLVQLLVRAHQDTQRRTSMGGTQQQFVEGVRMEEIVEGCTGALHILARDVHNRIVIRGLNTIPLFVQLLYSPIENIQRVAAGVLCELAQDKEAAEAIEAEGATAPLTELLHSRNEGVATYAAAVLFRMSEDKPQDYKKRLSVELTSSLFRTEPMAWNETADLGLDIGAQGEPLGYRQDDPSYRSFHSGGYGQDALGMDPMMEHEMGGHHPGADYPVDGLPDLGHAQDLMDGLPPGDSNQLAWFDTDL
# ASSAY OVERVIEW: Fluorescence polarization IC50 (beta-catenin / 5FAM-TCF4 10-53 competition)
# Format: binding
# REPORTED CONDITIONS: fluorescence polarization; read-out: beta-Catenin FP IC50

{"COMPOUND": "CC(=O)N1CCC[C@]12CC=CCCCC1(CCCC=CCCCOC(=O)N3CC[C@@](C(=O)N[C@@H](Cc4ccsc4)C(=O)N[C@@H](Cc4csc5ccccc45)C(=O)N[C@@H](CC(N)=O)C(N)=O)(C3)NC(=O)[C@H](C)NC(=O)[C@H](Cc3ccccc3)NC(=O)[C@H](C)NC(=O)[C@H](C)NC(=O)[C@H](Cc3cccc(C(=O)O)c3)NC(=O)[C@H](CC(=O)O)NC1=O)NC(=O)[C@H](CC(C)(C)C)NC(=O)[C@H](CC(=O)O)NC2=O (stereo partly drawn)", "IC50, µM": 0.009}
{"COMPOUND": "CC(=O)N1CCC[C@]12CC=CCCCC1(CCCC=CCCCOC(=O)N3CC[C@@](C(=O)N[C@@H](Cc4ccsc4)C(=O)N[C@@H](Cc4csc5ccccc45)C(=O)N[C@@H](CCC(N)=O)C(N)=O)(C3)NC(=O)[C@H](CCO)NC(=O)[C@H](Cc3ccccc3)NC(=O)[C@H](C)NC(=O)[C@H](C)NC(=O)[C@H](CCc3ccc(O)cc3)NC(=O)[C@H](CC(=O)O)NC1=O)NC(=O)[C@H](CC(C)(C)C)NC(=O)[C@H](CC(=O)O)NC2=O (stereo partly drawn)", "IC50, µM": 0.042}
{"COMPOUND": "CC(=O)N1CCC[C@]12CC=CCCCC1(CCCC=CCCCOC(=O)N3CC[C@@](C(=O)N[C@@H](Cc4ccsc4)C(=O)N[C@@H](Cc4csc5ccccc45)C(=O)N[C@@H](CCC(N)=O)C(N)=O)(C3)NC(=O)[C@H](Cc3c[nH]cn3)NC(=O)[C@H](Cc3ccccc3)NC(=O)[C@H](C)NC(=O)[C@H](C)NC(=O)[C@H]([C@@H](C)O)NC(=O)[C@H](CC(N)=O)NC1=O)NC(=O)[C@H](CC(C)(C)C)NC(=O)[C@H](CC(=O)O)NC2=O (stereo partly drawn) [I-2146]", "IC50, µM": 0.248}
